All figures here come from ChEMBL document CHEMBL1201862.

# measurement target: Zinc finger protein mex-5 (Caenorhabditis elegans)
# Sequence (Q9XUB2 whole entry): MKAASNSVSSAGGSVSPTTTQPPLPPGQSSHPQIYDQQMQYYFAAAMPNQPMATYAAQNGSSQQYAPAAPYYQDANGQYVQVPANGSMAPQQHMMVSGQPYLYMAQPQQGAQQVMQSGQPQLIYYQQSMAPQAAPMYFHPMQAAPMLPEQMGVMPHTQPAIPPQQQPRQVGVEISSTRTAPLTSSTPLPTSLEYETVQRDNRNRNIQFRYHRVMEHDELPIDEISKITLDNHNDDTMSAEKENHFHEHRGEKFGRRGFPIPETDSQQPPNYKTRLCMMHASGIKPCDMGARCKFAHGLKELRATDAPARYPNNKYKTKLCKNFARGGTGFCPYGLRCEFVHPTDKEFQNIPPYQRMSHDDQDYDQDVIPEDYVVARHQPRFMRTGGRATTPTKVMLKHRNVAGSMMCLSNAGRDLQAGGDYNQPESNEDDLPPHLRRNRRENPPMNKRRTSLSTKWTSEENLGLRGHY
# method summary: potency of MEX-5 RNA-binding blockers – biochemical, C. elegans, fluorescence polarization, dose response (AID 1960)
measured quantity: EC50

Worked set:
>  <compound>
OC(C#Cc1ccccn1)c1cccs1 (stereo not drawn)

>  <EC50>
27.4 µM (inconclusive)

$$$$
>  <compound>
O=C1N=C(N2CCOCC2)S/C1=C\c1ccc(-c2ccccc2Cl)o1

>  <EC50>
> 300 µM (not active)

$$$$
>  <compound>
COc1ccc(/C(O)=C/C=N/c2ccc([N+](=O)[O-])cc2C)c(OC)c1

>  <EC50>
> 300 µM (not active)

$$$$

// lookup EC50 | system=Zinc finger protein mex-5 (Caenorhabditis elegans) | key= Cc1cc(CC(C)C)n(-c2nc3ccccc3c(=O)n2OCc2ccccc2)n1
> 300 µM (not active)

Request: CCN1C(=O)C(=Cc2ccc(N3CCOCC3)o2)C(=O)N(CC)C1=S
> 300 µM (inconclusive)

Request: COC(=O)c1cc(-n2cccc2)ccc1N1CCOCC1
> 300 µM (not active)

Request: N#CC(C#N)=Cc1ccc(N2CCOCC2)cc1
> 300 µM (not active)

Request: Cc1ccc2sc(NNC(=O)c3cc(=O)c4ccccc4o3)nc2c1C
> 300 µM (inconclusive)
